Molecular target: SNAP-hSPR (sepiapterin reductase, SPR) (Homo sapiens)
Reported IC50 is given for each of the following compounds.
readout: IC50 (nM)

>  <compound>
Cc1c(C(=O)N2CC[C@@H](N(C)C(=O)OC(C)(C)C)C2)cnn1-c1nc2ccsc2c(=O)[nH]1 [Q-0549]

>  <readout>
IC50

>  <result-number>
4

$$$$
>  <compound>
Cc1c(C(=O)N2CCN(S(=O)(=O)C(F)(F)F)CC2)cnn1-c1nn2cccc2c(=O)[nH]1 [Q-1886]

>  <readout>
IC50

>  <result-number>
2

$$$$
>  <compound>
CC(C)(C#N)C1CCN(C(=O)c2cnn(-c3nc4c(c(=O)[nH]3)CCC4)c2C2CC2)CC1 [Q-0553]

>  <readout>
IC50

>  <result-number>
6

$$$$
>  <compound>
Cc1c(C(=O)N2C3CCC2CN(C(=O)OC(C)(C)C)C3)cnn1-c1nc2c(c(=O)[nH]1)CCC2 [Q-0745]

>  <readout>
IC50

>  <result-number>
4

$$$$

====

pIC50: −log10 of the molar value.
Assay read-out pIC50; system under study: SNAP-hSPR (sepiapterin reductase, SPR) (Homo sapiens).

>  <compound>
Cc1c(C(=O)N2CC3(CSC3)C2)cnn1-c1nn2cccc2c(=O)[nH]1

>  <system-tested>
SNAP-hSPR (sepiapterin reductase, SPR) (Homo sapiens)

>  <pIC50>
8.70

$$$$
>  <compound>
Cc1c(C(=O)N2CCC(F)(C#N)C2)cnn1-c1nn2cccc2c(=O)[nH]1 (stereo not shown)

>  <system-tested>
SNAP-hSPR (sepiapterin reductase, SPR) (Homo sapiens)

>  <pIC50>
8.70

$$$$
>  <compound>
Cc1c(C(=O)N2CCN(c3nc(-c4cccc(C#N)c4)cs3)CC2)cnn1-c1nn2cccc2c(=O)[nH]1

>  <system-tested>
SNAP-hSPR (sepiapterin reductase, SPR) (Homo sapiens)

>  <pIC50>
8.70

$$$$
>  <compound>
COC1CN(C(=O)c2cnn(-c3nc4c(c(=O)[nH]3)CCC4)c2C)C1

>  <system-tested>
SNAP-hSPR (sepiapterin reductase, SPR) (Homo sapiens)

>  <pIC50>
8.30

$$$$

====

Assay read-out IC50; system under study: UniProt P35270.
readout: IC50 (nM)

>  <compound>
Cc1c(C(=O)N2CC3(C2)CC(F)(F)C3)cnn1-c1nc2c(c(=O)[nH]1)CC(C)(C)C2 [Q-1565]

>  <readout>
IC50

>  <result-number>
5000

$$$$
>  <compound>
Cc1c(C(=O)N2CCN(C(C)(C)C)CC2)cnn1-c1nn2cccc2c(=O)[nH]1 [Q-0888]

>  <readout>
IC50

>  <result-number>
5

$$$$
>  <compound>
Cc1nc(-n2ncc(C(=O)N3c4ccccc4CC3C)c2C)[nH]c(=O)c1C (stereo not shown) [Q-0404]

>  <readout>
IC50

>  <result-number>
40

$$$$
>  <compound>
Cc1c(C(=O)N2CCC(C3CC3)CC2)cnn1-c1nn2cccc2c(=O)[nH]1 [Q-0727]

>  <readout>
IC50

>  <result-number>
1

$$$$

====

Biological target: SNAP-hSPR (sepiapterin reductase, SPR) (Homo sapiens, UniProt P35270)
Sequence (P35270 whole entry): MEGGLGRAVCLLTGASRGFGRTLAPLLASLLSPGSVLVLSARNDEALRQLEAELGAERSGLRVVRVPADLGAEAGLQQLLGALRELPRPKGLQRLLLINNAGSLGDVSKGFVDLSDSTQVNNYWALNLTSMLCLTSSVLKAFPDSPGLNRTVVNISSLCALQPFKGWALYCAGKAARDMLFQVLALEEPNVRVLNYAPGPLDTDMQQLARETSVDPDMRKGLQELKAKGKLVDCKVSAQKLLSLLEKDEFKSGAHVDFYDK
Rule: IC50 below 9 nM gives 1. Equal to or above 9 nM gives 0.

>  <molecule>
Cc1cc(=O)[nH]c(-n2ncc(C(=O)O)c2C)n1 [Q-0290]

>  <category>
0

$$$$
>  <molecule>
Cc1c(C(=O)O)cnn1-c1nc2sccc2c(=O)[nH]1 [Q-0542]

>  <category>
0

$$$$
>  <molecule>
Cc1c(C(=O)N2CCN(CC(F)(F)F)c3ccccc32)cnn1-c1nn2cccc2c(=O)[nH]1 [Q-1216]

>  <category>
1

$$$$
>  <molecule>
Cc1c(C(=O)NC2CCCC2)cnn1-c1nc2ccccc2c(=O)[nH]1 [Q-0321]

>  <category>
0

$$$$
>  <molecule>
Cc1c(C(=O)N2CCC(C(C)(O)C(F)(F)F)CC2)cnn1-c1nn2cccc2c(=O)[nH]1 (centres unmarked) [Q-0782]

>  <category>
1

$$$$
>  <molecule>
Cc1c(C(=O)N2CCN(c3ncc(-c4ccncc4)o3)CC2)cnn1-c1nn2cccc2c(=O)[nH]1 [Q-1161]

>  <category>
1

$$$$

The measured values listed here are drawn from patent US9963462B2.
